// provenance: patent US20230002334A1

Molecular target: hTRPM8 (Homo sapiens, UniProt Q7Z2W7)
Construct: expressed in transfected cells
Sequence (Q7Z2W7 whole entry): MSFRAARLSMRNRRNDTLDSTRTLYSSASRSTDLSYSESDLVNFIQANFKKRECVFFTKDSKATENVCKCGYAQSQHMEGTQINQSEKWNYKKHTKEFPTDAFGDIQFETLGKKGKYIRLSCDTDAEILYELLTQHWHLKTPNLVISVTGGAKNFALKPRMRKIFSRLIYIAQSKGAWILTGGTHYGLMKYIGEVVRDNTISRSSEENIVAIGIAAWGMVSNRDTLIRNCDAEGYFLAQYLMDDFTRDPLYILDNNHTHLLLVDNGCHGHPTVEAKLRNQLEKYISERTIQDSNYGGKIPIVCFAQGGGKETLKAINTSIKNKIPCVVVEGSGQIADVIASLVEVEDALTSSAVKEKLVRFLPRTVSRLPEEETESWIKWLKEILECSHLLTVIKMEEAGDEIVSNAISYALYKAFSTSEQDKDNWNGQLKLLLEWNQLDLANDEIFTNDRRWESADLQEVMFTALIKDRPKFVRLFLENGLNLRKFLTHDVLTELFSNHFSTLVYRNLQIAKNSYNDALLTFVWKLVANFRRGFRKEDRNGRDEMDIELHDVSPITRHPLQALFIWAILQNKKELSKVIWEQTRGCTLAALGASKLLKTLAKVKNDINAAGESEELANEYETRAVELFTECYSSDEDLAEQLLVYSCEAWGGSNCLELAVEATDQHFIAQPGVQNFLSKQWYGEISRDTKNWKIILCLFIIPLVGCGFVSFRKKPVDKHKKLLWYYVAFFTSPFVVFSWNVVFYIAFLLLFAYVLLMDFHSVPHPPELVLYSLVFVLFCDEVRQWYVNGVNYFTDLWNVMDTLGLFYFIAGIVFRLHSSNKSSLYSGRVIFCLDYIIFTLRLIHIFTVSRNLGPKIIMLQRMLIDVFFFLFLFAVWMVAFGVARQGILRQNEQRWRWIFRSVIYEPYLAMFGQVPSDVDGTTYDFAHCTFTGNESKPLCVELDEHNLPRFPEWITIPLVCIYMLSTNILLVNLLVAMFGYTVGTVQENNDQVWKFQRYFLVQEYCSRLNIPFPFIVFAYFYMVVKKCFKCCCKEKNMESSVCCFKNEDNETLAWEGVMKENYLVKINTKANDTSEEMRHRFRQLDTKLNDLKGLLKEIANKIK
Assay: Assay on TRPM8 modulators: calcium imaging (Fluo-4, Flexstation) in HEK293 cell line stably expressing hTRPM8
Assay type: cell-based
Conditions: HEK293 cells stably expressing hTRPM8, calcium influx, sigmoidal dose-response fit; read-out: EC50
Reported Endpoint: EC50

{"Molecule": "CC1CC(C)C2C(C1)C(C)(C)ON2C(C)C (centres unmarked) [Compound 12]", "Reported Endpoint": "EC50", "Reported Measurement": "300 to 1000 nM"}

Record summary for CC1CC(C)[C@H]2[C@@H](C1C)C(C)(C)ON2C (mixture of isomers) : reported EC50 = 1000 to 35000 nM

Record summary for CC(C)N1OC(C)(C)[C@@H]2C[C@](C)(c3cccc(C#N)c3)C[C@H](C)[C@H]21 (racemic) : reported EC50 = < 50 nM

Record summary for C[C@H]1C[C@@](C)(c2ccccc2)C[C@@H]2[C@@H]1N(C)OC2(C)C (racemic) : reported EC50 = 50 to 300 nM

Record summary for Cc1ccc(C)c([C@@]2(C)C[C@@H]3[C@@H]([C@@H](C)C2)N(C)OC3(C)C)c1 (racemic) : reported EC50 = < 50 nM

====

Reported pEC50 values are given for each entry in this list.
Target: hTRPM8 (Homo sapiens)
Construct: expressed in transfected cells
Assay: Assay on TRPM8 modulators: calcium imaging (Fluo-4, Flexstation) in HEK293 cell line stably expressing hTRPM8
Type: cell-based
Conditions: HEK293 cells stably expressing hTRPM8, calcium influx, sigmoidal dose-response fit; read-out: EC50
pEC50: −log10 of the molar value.

Some solved cases for reference:
{"Compound": "COc1ccc(C#N)cc1[C@H]1C[C@@H]2[C@@H]([C@@H](C)C1)N(C(C)C)OC2(C)C (racemic)", "Reported Measurement": "> 7.30"}
{"Compound": "CCN1OC(C)(C)C2CC(CC=C(C)C)CC(C)C21 (racemic)", "Reported Measurement": "6.00 to 6.52"}
{"Compound": "C[C@H]1C[C@@](C)(c2ccccc2F)C[C@@H]2[C@@H]1N(C)OC2(C)C (racemic)", "Reported Measurement": "6.52 to 7.30"}
{"Compound": "Cc1ccc([C@@]2(C)C[C@@H]3[C@@H]([C@@H](C)C2)N(C)OC3(C)C)cc1C#N (racemic)", "Reported Measurement": "6.52 to 7.30"}
{"Compound": "COc1cc(OC)cc([C@@]2(C)C[C@@H]3[C@@H]([C@@H](C)C2)N(C)OC3(C)C)c1 (racemic)", "Reported Measurement": "4.46 to 6.00"}

Record summary for CCC[C@@H]1CC[C@@H]2[C@@H](C1)C(C)(C)ON2C (racemic) : reported pEC50 = 6.00 to 6.52

Record summary for Cc1c(Cl)cccc1[C@H]1C[C@@H]2[C@@H]([C@@H](C)C1)N(C(C)C)OC2(C)C (racemic) : reported pEC50 = 6.52 to 7.30

====

Target: hTRPM8 (Homo sapiens)
Construct: expressed in transfected cells
Experiment: Assay on TRPM8 modulators: calcium imaging (Fluo-4, Flexstation) in HEK293 cell line stably expressing hTRPM8
Type: cell-based
Conditions: HEK293 cells stably expressing hTRPM8, calcium influx, sigmoidal dose-response fit; read-out: EC50
pEC50: −log10 of the molar value.
Reported Endpoint: pEC50

Some solved cases for reference:
{"Molecule": "CCC1CC(CC)C2C(C1)C(C)(C)ON2C (centres unmarked)", "pEC50": "4.46 to 6.00"}
{"Molecule": "CCC1(C)CC(C)C2C(C1)C(C)(C)ON2C (centres unmarked)", "pEC50": "4.46 to 6.00"}

Record summary for COc1ccc([C@]2(C)C[C@@H](C)[C@@H]3[C@@H](C2)C(C)(C)ON3C)cc1 (racemic) : reported pEC50 = 4.46 to 6.00

Record summary for C[C@H]1C[C@@](C)(c2ccc(Cl)c(C#N)c2)C[C@@H]2[C@@H]1N(C)OC2(C)C (racemic) : reported pEC50 = > 7.30

Record summary for CCc1ccccc1[C@H]1C[C@@H]2[C@@H]([C@@H](C)C1)N(C(C)C)OC2(C)C (racemic) : reported pEC50 = 6.00 to 6.52
